assay remarks: gradient 5% acetonitrile 3 min, to 50% in 2 min, to 85% in 15 min, held 3 min, 100 µL/min
test context: column: Zorbax Extend-C18 2.1 x 50 mm; eluents: water / acetonitrile, 0.1% formic acid
Label scheme, based on RP-LC retention time: band A: < 800 s; band B: ≥ 800 s and < 1000 s; band C: ≥ 1000 s

1) O=c1ccc(N2CCCC(NS(=O)(=O)c3ccc(F)c(F)c3)C2)nn1CC1CC1 (stereo not drawn) : band B
2) CN(Cc1ccccc1)C(=O)Cn1c(=O)c2cnc(-c3ccc(Cl)cc3)nc2n(C)c1=O : band C
3) Clc1ccc(-c2csc(Nc3c(Cl)cccc3Cl)n2)cc1Cl : band C
4) O=C(NCc1cccnc1)C1CCN(S(=O)(=O)c2cc(-c3noc(C4CCC4)n3)cs2)CC1 : band A
5) COc1ccc(-c2ncc3c(n2)CCN(S(=O)(=O)c2ccccc2C(F)(F)F)C3)cc1 : band C
6) Cc1ccc(S(=O)(=O)N2CCc3nc(-c4ccccc4)ncc3C2)c(C)c1 : band C
7) Cc1ccc(N2C(=O)CC(Nc3ccc(N4CCOCC4)cc3)C2=O)c(Br)c1 (stereo not drawn) : band A
8) O=c1c2nc(-c3ccc4c(c3)OCO4)cn2ccn1-c1ccc(F)cc1 : band A
9) CCn1c(=O)sc2cc(S(=O)(=O)N3CCC(C(=O)Nc4cccc(C)c4)CC3)ccc21 : band B
10) O=C(NCc1csc(-c2cccs2)n1)C1CCN(C(=O)c2c(F)cccc2F)CC1 : band A
11) CSc1cccc(NC(=O)N2CCN(C)CC2)c1 : band A
12) CCOC(=O)c1ccc2nc(C(F)(F)F)nc(NCCCN3CCCC3=O)c2c1 : band B
13) CCc1cccc(C)c1NC(=O)C1Cc2cc(S(=O)(=O)N3CCCCC3)ccc2N1C(C)=O (stereo not drawn) : band B
14) Cc1cccc(N2CCN(c3ccc4cc(S(=O)(=O)N5CCCCC5C)ccc4n3)CC2)c1C (stereo not drawn) : band C
15) CCc1noc(-c2cc(=O)n(CC(=O)NCc3ccc(SC)cc3)c3ccccc23)n1 : band B
16) CCn1cc2c3c(cccc31)CN(C(=O)Nc1cccc(C)c1)CC2 : band C
17) COC(=O)c1ccc2c(=O)n(-c3cccc(Cl)c3)c(N3CCSCC3)nc2c1 : band C
18) O=C(Cn1nc(-c2nc(-c3ccc(Cl)cc3)no2)ccc1=O)N1CCCC1 : band B
19) COc1ccc(NC(=O)Cn2nc3cc(C)nc(Nc4ccc(C)c(F)c4)n3c2=O)cc1 : band C
20) Cc1cc(C)c(C)c(S(=O)(=O)NC2CCN(c3ccc(=O)n(CC4CC4)n3)CC2)c1C : band C
21) COCCCNC(=O)C1c2ccccc2C(=O)N1Cc1ccc(Cl)cc1 (stereo not drawn) : band A
22) O=C(CCCc1nnc2c(=O)n(-c3ccc(Cl)cc3)ccn12)NCCc1c[nH]c2ccccc12 : band A
23) O=C([C@@H]1C[C@H](F)CN1S(=O)(=O)Cc1ccc(Cl)cc1)N1CCCCC1 : band B
24) COCc1nncn1C1CCN(S(=O)(=O)c2ccc(C)c(Cl)c2)CC1 : band A
25) Cc1nn(C)c(C)c1CCC(=O)N1CCN(S(C)(=O)=O)CC1 : band A
26) COC(=O)C1=CN(c2cccc(C#N)c2)c2ccccc2S1(=O)=O : band A
27) CC(=O)NCCc1csc(C2CCN(C(=O)C3(c4ccccc4)CC3)CC2)n1 : band A
28) O=C(CC(=O)Nc1ccc2nc3n(c(=O)c2c1)CCCCC3)Nc1ccc(F)cc1 : band A
29) Cc1noc2nc(C)n(CC(=O)Nc3ccc(F)cc3F)c(=O)c12 : band A
30) O=C(NC1CC1)c1ccc2c(c1)CCN2C(=O)C1CCCC1 : band B

---

// reported RP-LC retention time per item
assay remarks: gradient 5% acetonitrile 3 min, to 50% in 2 min, to 85% in 15 min, held 3 min, 100 µL/min
test context: column: Zorbax Extend-C18 2.1 x 50 mm; eluents: water / acetonitrile, 0.1% formic acid
readout label: RP-LC retention time (s)

1) Cc1cc(S(=O)(=O)NCC2CCN(C(=O)NC(C)(C)C)CC2)c(Cl)cc1Cl : 927
2) COc1ccccc1CNc1c(-c2cc(OC)c(OC)c(OC)c2)nc2ncccn12 : 714
3) Cc1nc(-c2cnccn2)nc2c1CCC(=O)N2Cc1ccccc1F : 726
4) CCCCNC(=O)Cn1c2ccccc2c2ncn(Cc3nc(-c4ccccc4)no3)c(=O)c21 : 910
5) CCOc1cccc(-c2noc(Cn3c(=O)n(CCc4ccccc4)c(=O)c4sccc43)n2)c1 : 660
6) COc1cccc(-c2ccc(NC(=O)C3=C(C(=O)O)CCC3)c(F)c2)c1 : 1080
7) Cc1ccc(F)cc1NS(=O)(=O)c1cc2c(s1)CCN(C(=O)C1CCC1)C2 : 877
8) COc1ccc(NC(=O)Cn2nc3c(N4CCSCC4)nccn3c2=O)cc1OC : 720
9) COc1ccc(-c2noc(C3(NC(=O)c4ccc(OC)c(F)c4)CCCCC3)n2)cc1 : 1140
10) CN1C(=O)COc2cc(-c3noc(C(=O)N4CCCC4)n3)ccc21 : 746
11) CS(=O)(=O)N1CCC(C(=O)NCc2ccsc2)CC1 : 616
12) CN(Cc1ccccc1)Cc1cc(=O)n2cc(Cl)ccc2n1 : 608
13) CCC(C(=O)NCCCN1CCN(C)CC1)n1c2ccccc2c2cnn(C)c(=O)c21 (stereo not given) : 560
14) CCc1ccc(OCC(O)Cn2c(C3CC3)nc3ccccc32)cc1 (stereo not given) : 739
15) Cc1cccc(C)c1NC(=O)CN1C(=O)NC2(CCCCC2)C1=O : 745
16) COc1cccc(-c2ccnc3nc(Cc4cc(F)cc(F)c4)nn23)c1 : 945
17) CCOc1ccc(-c2csc(Cc3nc(-c4cccc(Cl)c4)no3)n2)cc1 : 1340
18) O=C(CC1CCN(S(=O)(=O)c2ccc(Cl)s2)CC1)NCCc1c[nH]c2ccccc12 : 945
19) COc1ccc(C2(C(=O)N[C@@H]3CN(S(C)(=O)=O)C[C@H]3CN(C)C)CC2)cc1 : 635
20) O=c1ccc(-c2ccc3c(c2)OCO3)nn1CCc1nc(-c2ccncc2)no1 : 730

---

assay remarks: gradient 5% acetonitrile 3 min, to 50% in 2 min, to 85% in 15 min, held 3 min, 100 µL/min
test context: column: Zorbax Extend-C18 2.1 x 50 mm; eluents: water / acetonitrile, 0.1% formic acid
readout label: RP-LC retention time (s)

1) Cc1nc2c(sc3nc(-c4ccccc4)ccc32)c(=O)n1CC(=O)NCc1ccccc1Cl : 1030
2) CCCNC(=O)N1CCCC1c1nc(-c2cccc(C(F)(F)F)c2)no1 (stereo not given) : 963
3) O=C(NC1CCN(c2cc(-c3cccs3)[nH]n2)C1)c1ccccc1Br (stereo not given) : 705
4) Cc1nccn1Cc1nc(-c2ccc(F)c(Cl)c2)no1 : 654
5) COc1c(C(=O)NC(C)C)sc2cc(Cl)ccc12 : 1060
6) O=C(Oc1ccccc1)N1CCC(CNS(=O)(=O)c2ccc(F)c(Cl)c2)CC1 : 951
7) Cc1cc(C)cc(NC(=O)N2CCCC(C)(C(=O)NCc3ccccc3)C2)c1 (stereo not given) : 959
8) Cc1noc(C)c1CCC(=O)NCCOc1ccc2nnc(-c3cccc(F)c3)n2n1 : 633
9) CCOCCCNC(=O)c1ccc2c(c1)nc1n2CCCCC1 : 588
10) Cn1c(C(=O)N2CCN(c3ccccn3)CC2)cc2cc(S(=O)(=O)N3CCCCC3)ccc21 : 699
11) O=C(C1CCCN(c2nccnc2Sc2ccccc2)C1)N1CCN(c2cccc(Cl)c2)CC1 (stereo not given) : 1260
12) COCc1nnc(NC(=O)C2CCN(C(=O)c3ccccc3Cl)CC2)s1 : 670
13) Cc1ccccc1-c1noc(-c2cccn(CC(=O)NC(C)C)c2=O)n1 : 761
14) COc1ccccc1N1CCN(C(=O)CCc2nnc3c4cc(-c5ccccc5)nn4ccn23)CC1 : 763
15) O=C1Nc2ccccc2SC1C(=O)N1CCC(C(=O)N2CCn3c2nc2ccccc23)CC1 (stereo not given) : 688
16) CCC(C)(C)NC(=O)Cn1ncc2c(N3CCN(c4ccccn4)CC3)ncnc21 : 587
17) O=C(NC1CCCCC1)N1CC(F)(F)C[C@H]1CN1CCc2ccccc2C1 : 792
18) CC(C)OC(=O)c1c(-c2ccccc2)c(-c2ccccc2)n[nH]c1=O : 910
19) CCc1ccc(NC(=O)c2cn(CC)nc2S(=O)(=O)N2CCSCC2)cc1 : 1100
20) CCCCN(CC)C(=O)C1CCCN(c2ccc(-c3ccc(C)cc3)nn2)C1 (stereo not given) : 796

---

assay remarks: gradient 5% acetonitrile 3 min, to 50% in 2 min, to 85% in 15 min, held 3 min, 100 µL/min
test context: column: Zorbax Extend-C18 2.1 x 50 mm; eluents: water / acetonitrile, 0.1% formic acid
// reported RP-LC retention time per item
readout label: RP-LC retention time (s)

1. O=C(CCn1nnc2cc(-c3noc(COc4ccccc4)n3)ccc21)N1CCCC1 : 862
2. CCOc1cc(C(=O)Nc2nnc(-c3ccc(Cl)s3)o2)cc(OCC)c1OCC : 986
3. CCOC(=O)COC(=O)c1cn(-c2cccc(F)c2)c(=O)c2ccccc12 : 1020
4. CCOC(=O)CNC(=O)N1CCN(Cc2nc3cc(-c4ccccc4)ccc3o2)CC1 : 601
5. O=C(Nc1nnc(-c2ccc(Br)cc2)o1)c1ccccc1F : 788
6. Cc1ccc(CN2C(=O)CN(S(C)(=O)=O)CC2(C)C(=O)NCc2ccc(F)cc2)cc1 (stereo not drawn) : 836
7. CSc1ccccc1C(=O)NCC1CCN(S(C)(=O)=O)CC1 : 641
8. Cc1ccc(N2CC(c3nc(-c4ccc5c(c4)oc(=O)n5C(C)C)no3)CC2=O)cc1 (stereo not drawn) : 990
9. Cc1ccc(NC(=O)Cn2cnc3nc(N4CCC(C(=O)NC5CC5)CC4)sc3c2=O)cc1 : 674
10. COc1ccc(CNC(=O)Cn2c(=O)c3cc(-c4ccco4)nn3c3ncccc32)cc1 : 754
11. CCCn1ccc2sc(C)c(C(=O)NCc3ccc(F)cc3F)c2c1=O : 925
12. CCCn1cc(C(=O)NCCCOC)c(S(=O)(=O)N2CCN(c3ccccc3Cl)CC2)n1 : 1020
13. COc1ccc(NC(=O)CSc2cc(C)nc(-c3cnccn3)n2)cc1Cl : 757
14. O=C(C1CCN(c2ncnc3c2oc2ccccc23)CC1)N1CCN(c2ccccc2Cl)CC1 : 930
15. CCc1nc(OCC(=O)NCc2ccc(N(C)C)cc2)c2c(C)c(C)oc2n1 : 689
16. CC(C)CCNC(=O)NCCc1cn(C)c2ncccc12 : 649
17. CCn1cc(S(=O)(=O)N2C[C@@H](COC)[C@H](c3ccccn3)C2)cn1 : 625
18. Cc1ccnc(N2CCCC(C(=O)NCC3CCN(Cc4ccc(Cl)cc4)CC3)C2)n1 (stereo not drawn) : 624
19. Cc1ccc(CNC(=O)C2CCCN(S(=O)(=O)c3cc(-c4noc(C)n4)cs3)C2)cc1 (stereo not drawn) : 974
20. CNC(=O)[C@@H]1CN(S(=O)(=O)c2cnc[nH]2)C[C@H]1c1n[nH]c(C)n1 : 530
21. CCc1cc(C(=O)Nc2cccc(C)c2)nc2ccnn12 : 995
22. CCc1ccccc1N1C(=O)CN(S(C)(=O)=O)CC1(C)C(=O)NCc1ccccc1 (stereo not drawn) : 804
23. CCN(CC)C(=O)c1cnc2nc(C)ccc2c1Nc1ccc2c(c1)OCCO2 : 601
24. COc1ccc(NC(=O)c2nc(C(C)C)oc2C)cc1Cl : 1080
25. Cc1ccc(CN2C(=O)Cn3cccc3C2C(=O)NC2CCCC2)cc1 (stereo not drawn) : 892
26. Cc1ccc(-n2c(C)c(C)c3c(=O)n(CC(=O)N(C)Cc4ccco4)cnc32)cc1 : 907
27. CCC1=C(c2ccc(C)cc2)S(=O)(=O)N=C1N1CCC(C(=O)NCc2ccco2)CC1 : 793
28. CC1Cc2ccccc2N1C(=O)CC1CCN(S(=O)(=O)c2ccc3c(c2)oc(=O)n3C)CC1 (stereo not drawn) : 965
29. CCCN1C(=O)COc2ccc(-c3csc(NC(=O)C4CCCO4)n3)cc21 (stereo not drawn) : 896
30. O=C(c1cccs1)N1CCCC1c1ccc(F)cc1 (stereo not drawn) : 910
31. O=C1NC2(CCN(C(=O)Nc3ccccc3Cl)CC2)Oc2ccccc21 : 765
32. COc1ccc(-c2nc(Nc3ccccn3)sc2C)cc1 : 807
33. Fc1ccc(-c2nnc(-c3ccc(-n4ccnc4)nc3)o2)c(F)c1 : 645
34. Cc1nc(CNC(=O)C2CCN(C(=O)NCCc3ccccc3)CC2)cs1 : 660
35. CN1CCN(CCNC(=O)C2CCc3sc(C(=O)N4CCOCC4)cc3C2)CC1 (stereo not drawn) : 543
36. COc1ccc(Cl)cc1NC(=O)C1CC(=O)N(c2ccc3c(c2)CCN3C(C)=O)C1 (stereo not drawn) : 774
37. COc1cccc(CNS(=O)(=O)c2ccc3c(c2)CCCC(=O)N3)c1 : 714
38. CN1C(=O)c2cc(S(=O)(=O)Nc3ccc(F)c(F)c3)ccc2Oc2cccnc21 : 910
